# Test system: E. coli MZ 480
# Experiment Summary: MARA indicator device toxic fingerprint, microorganism no. 8
# Reported Conditions: Microbial Toxic Concentration; incubation time 16 h
Where a name gives a salt, the structure may show the parent alone.
Threshold check on Toxic fingerprint: MTC value for microorganism no. 8: strictly below 0.4 is true; on or above 0.4 is false.

Please review the entries below; each comes with its answer.
COc1ccc(CCN(C)CCCC(C#N)(c2ccc(OC)c(OC)c2)C(C)C)cc1OC (centres unmarked) [Verapamil HCl] ... true
[Cl-].[K+] [Potassium Chloride] ... false
Cn1c(=O)c2c(ncn2C)n(C)c1=O ... false

Given the entry [N-]=[N+]=[N-] [Sodium Azide] , would its reported Toxic fingerprint: MTC value for microorganism no. 8 be below 0.4?
false

For this compound, is Toxic fingerprint: MTC value for microorganism no. 8 lower than 0.4? O=[N+]([O-])[O-].O=[N+]([O-])[O-].[Ba+2] [Barium nitrate]
false

For this compound, is Toxic fingerprint: MTC value for microorganism no. 8 lower than 0.4? [Cl-].[Cl-].[Mg+2] [Magnesium Chloride]
false

Toxic fingerprint: MTC value for microorganism no. 8 strictly < 0.4 for this compound? CSc1ccc2c(c1)N(CCC1CCCCN1C)c1ccccc1S2 (centres unmarked) [Tioridazin HCl]
true

Determine if "C[C@H]1O[C@@H](O[C@H]2[C@@H](O)C[C@H](O[C@H]3[C@@H](O)C[C@H](O[C@H]4CC[C@@]5(C)[C@H](CC[C@@H]6[C@@H]5C[C@@H](O)[C@]5(C)[C@@H](C7=CC(=O)OC7)CC[C@]65O)C4)O[C@@H]3C)O[C@@H]2C)C[C@H](O)[C@@H]1O" shows Toxic fingerprint: MTC value for microorganism no. 8 strictly lower than 0.4.
true

====

# Tested on: Saccaromyces ceriviciae (bakers yeast)
# Reported Conditions: Microbial Toxic Concentration; incubation time 16 h
Structures can show the parent of a compound that is named as a salt.
Toxic fingerprint: MTC value for microorganism no. 10 for assorted compounds
Please give only the number in your answer, with no unit.

The examples below pair each entry with its known result.
CSc1ccc2c(c1)N(CCC1CCCCN1C)c1ccccc1S2 (centres unmarked) [Tioridazin HCl] ... 0.014
Cn1c(=O)c2c(ncn2C)n(C)c1=O [Caffeine] ... 0.790
[Cl-].[Cl-].[Mg+2] [Magnesium Chloride] ... 22.700
COc1ccc(CCN(C)CCCC(C#N)(c2ccc(OC)c(OC)c2)C(C)C)cc1OC (centres unmarked) [Verapamil HCl] ... 0.877
C[C@H]1O[C@@H](O[C@H]2[C@@H](O)C[C@H](O[C@H]3[C@@H](O)C[C@H](O[C@H]4CC[C@@]5(C)[C@H](CC[C@@H]6[C@@H]5C[C@@H](O)[C@]5(C)[C@@H](C7=CC(=O)OC7)CC[C@]65O)C4)O[C@@H]3C)O[C@@H]2C)C[C@H](O)[C@@H]1O [Digoxin] ... 2.510
O=[N+]([O-])[O-].O=[N+]([O-])[O-].[Ba+2] [Barium nitrate] ... 0.453
[Cl-].[K+] [Potassium Chloride] ... 16.000

Let us examine a further case.
Value of measured Toxic fingerprint: MTC value for microorganism no. 10 for the entry [N-]=[N+]=[N-] [Sodium Azide] : 0.106

====

Toxic fingerprint: MTC value for microorganism no. 7: recorded values
# Tested on: microorganism no. 7
# Experiment Summary: MARA indicator device toxic fingerprint, microorganism no. 7
# Reported Conditions: Microbial Toxic Concentration; incubation time 16 h
Counter-ions that a name gives are not always drawn.

Measured Toxic fingerprint: MTC value for microorganism no. 7 of COc1ccc(CCN(C)CCCC(C#N)(c2ccc(OC)c(OC)c2)C(C)C)cc1OC (centres unmarked) [Verapamil HCl] : 2.950

Looking up "Cn1c(=O)c2c(ncn2C)n(C)c1=O" , I found its Toxic fingerprint: MTC value for microorganism no. 7 recorded as 2.930

Reported Toxic fingerprint: MTC value for microorganism no. 7 ( [Cl-].[Cl-].[Mg+2] [Magnesium Chloride] ) = 12.100

Toxic fingerprint: MTC value for microorganism no. 7 measured on [N-]=[N+]=[N-] [Sodium Azide] = 0.126

Reported Toxic fingerprint: MTC value for microorganism no. 7 of O=[N+]([O-])[O-].O=[N+]([O-])[O-].[Ba+2] [Barium nitrate] : 1.110
